Measured values drawn from patent US9573913B2 for this set.

Recorded IC50 for the following molecules
Target: human cathepsin F (Homo sapiens, UniProt Q9UBX1)
Sequence (Q9UBX1 271-484): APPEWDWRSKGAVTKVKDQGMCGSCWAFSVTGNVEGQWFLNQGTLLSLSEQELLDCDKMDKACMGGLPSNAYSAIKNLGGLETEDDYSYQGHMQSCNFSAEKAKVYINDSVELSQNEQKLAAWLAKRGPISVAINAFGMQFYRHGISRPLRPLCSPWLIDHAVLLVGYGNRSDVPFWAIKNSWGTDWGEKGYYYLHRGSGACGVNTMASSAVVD
Assay: Cathepsin F assay (hCat F)
Format: biochemical
Conditions: Z-Phe-Arg-AMC substrate, pH 5.5, 15 min preincubation; read-out: hCat F (IP (nM))

Req: Item CC(C)C(C#N)NC(=O)[C@@H]1CCCC[C@H]1c1nc(-c2ccc(F)cn2)sc1-c1ccc(N2CCS(=O)(=O)CC2)cc1 (single isomer, unassigned) [Example 187] has what recorded IC50?
Resp: ≥ 10000 nM

Req: Further, for N#CC1(NC(=O)[C@@H]2CCCC[C@H]2c2nc(-c3ncccn3)sc2-c2ccc(N3CCS(=O)(=O)CC3)cc2)CC1 [Example 70] ?
Resp: ≥ 10000 nM

Req: Further, for COc1cnc(-c2nc([C@@H]3CCCC[C@H]3C(=O)NC3(C#N)CC3)c(-c3ccc(N4CCS(=O)(=O)CC4)cc3)s2)nc1 [Example 81] ?
Resp: ≥ 10000 nM
